Test system: HOP-62
Assay: NCI tumour cell line growth inhibition, 48 h
The source made the active and inactive calls. Rule as the data show it: active = GI50 up to about 1.1 µM and inactive = higher.
Respond with a class label; see active, inactive

molecule	category
CC(=O)OC[C@H]1O[C@@H](O[C@H]2[C@H](OC(C)=O)C=CO[C@@H]2COC(C)=O)C(OC(C)=O)[C@H]2OC(C)(C)O[C@H]21 (stereo not given in full)	inactive

Request: Which outcome was assigned to Cc1cn2c(C)csc2c1P(=O)(OC(C)C)OC(C)C in this test?
Response: inactive

Request: Which outcome was assigned to C=C(C)C1CCC2(CO)C(O)CC3(C)C(CCC4C5(C)CCC(O)C(C)(C)C5CCC43C)C12 (stereo not given) in this test?
Response: inactive

Request: Which outcome was assigned to COc1c2nc(CCl)[nH]c(=O)c2c(OC)c2nc(CCl)[nH]c(=O)c12 in this test?
Response: inactive

Request: Which outcome was assigned to S=C(NN=C1NCCCCN1)Nc1ccc(Cl)cc1 in this test?
Response: inactive

---

System: SW-620
Assay: NCI tumour cell line growth inhibition, 48 h
Calls of active or inactive are those of the source. No stated cut-off is given here; in the data, active = GI50 up to about 1.1 µM and inactive = higher.
Respond with a class label; see y for active, n for inactive

                                   molecule  category
0  O=C(OC1C=C=CS(=O)(=O)CC#C/C=C\1)c1cnc2ccccc2n1 (stereo unspecified)         n
1  Nc1c(-c2ccccc2)c2ccc([N+](=O)[O-])cc2c(=O)n1-c1cccc(C(=O)O)c1         n
2        Oc1cc2cc(-c3ccccc3)[nH]c2c2ccccc12         n

Request: Which outcome was assigned to NCCO/C=C/C(N)C(=O)O (stereo unspecified) [AMINOETHOXYVINYLGLYCINE] in this test?
Response: n

Request: Which outcome was assigned to COc1ccc2c(c1)CC1NC2Cc2ccccc21 (stereo unspecified) in this test?
Response: n

Request: Which outcome was assigned to COc1cc(CNC(=S)CCCCCCCCCCC(C)C)ccc1O in this test?
Response: n

Request: Which outcome was assigned to COc1ccc(-c2csc3c2-n2cccc2C3=O)cc1 in this test?
Response: y

Request: Which outcome was assigned to O=c1[nH]c(Br)nc2c(N3CCCCC3)c[nH]c12 in this test?
Response: n

Request: Which outcome was assigned to COC(=N)C12C(N)=NC(OC)(OC)C1(C#N)C21C(=O)N(c2ccccc2)N=C1C (stereo unspecified) in this test?
Response: n

Request: Which outcome was assigned to CCCCn1c(C)c(C(=O)OCC)s/c1=N/Nc1nc2ccccc2nc1-c1ccccc1 in this test?
Response: n

Request: Which outcome was assigned to N#CCc1nc(O)c2ccccc2n1 in this test?
Response: n

---

Measured GI50 values are reported for all entries that follow.
System: LOX IMVI
Assay: NCI tumour cell line growth inhibition, 48 h
Calls of active or inactive are those of the source. Cut-off read from the data, not from the text of the source: active = GI50 up to about 1.1 µM and inactive = higher.

Previously resolved entries follow.
compound	result
CN(C)CCNc1nc(-c2ccc3ccccc3c2)nc2[nH]cnc12	4.55 µM (inactive)
O=C(Cc1nc2ccccc2o1)C(=O)Nc1cccc(C(F)(F)F)c1	> 100 µM (inactive)
CC(C)OP(=O)(NC(=S)c1ccccc1)OC(C)C	> 100 µM (inactive)
N/N=C1\C(OC(=O)Nc2ccccc2)=Nc2ccccc21	14.5 µM (inactive)
c1ccc(CSC2(SCc3ccccc3)CCCCC2)cc1	> 10 µM (inactive)

Lab book: GI50 of CCOC(=O)C(=CNC(=S)N/N=C1\C(=O)Nc2ccccc21)C(=O)OCC noted as > 100 µM (inactive)

Lab book: GI50 of N#CCc1nc(O)c2ccccc2n1 noted as 56.4 µM (inactive)

Lab book: GI50 of CN(C)c1ccc(/C=C/C(=O)c2cc(C(C)(C)C)c(O)c(C(C)(C)C)c2)cc1 noted as 2.06 µM (inactive)

Lab book: GI50 of CNCCCNc1c2ccccc2nc2cccc([N+](=O)[O-])c12 noted as 0.00604 µM (active)

Lab book: GI50 of CCOC(=O)c1cc(/C=C/C(C)=C/C(=O)OC)oc1C noted as > 100 µM (inactive)
